- Tested on: RAW-Dual (murine macrophage reporter line)
- test-method-notes: IRF reporter (Lucia luciferase) activity fold change vs agonist alone; higher = enhanced IRF activity
- condition-context: modulator concentration 10 µM; agonist: LPS 0.1 ug/mL
# label = true if IRF reporter >= 1 else false

Request: Check the entry CC12CCC(=O)C=C1C=CC1C2CCC2(C)C1CCC21CCC(=O)O1 (stereo unspecified) : does IRF reporter equal or exceed 1?
Result: true

Request: Record: O=C(O)c1nn(-c2ccccc2)c(=O)c2ccccc12
Result: false

Request: Record: CCN(C=Nc1sc2c(c1C#N)CC(C)(C)NC2(C)C)CC
Result: true

Request: Record: CCN(CC)CCOCCOC(=O)C1(c2ccccc2)CCCC1
Result: true

Request: Record: O=C(c1cc2ccccc2o1)N1CC(N2C(=O)CCC2=O)C1
Result: true

* * *

Would you mind telling me the reported IRF reporter of each entry?
- Tested on: RAW-Dual (murine macrophage reporter line)
- test-method-notes: IRF reporter (Lucia luciferase) activity fold change vs agonist alone; higher = enhanced IRF activity
- condition-context: modulator concentration 10 µM; agonist: LPS 0.1 ug/mL
Form: value (number only, do not type unit).

Request: Dear colleague, I am looking for the recorded IRF reporter of the following compound: O=[N+]([O-])c1ccc(-n2cccc2C=NNc2nc(N3CCCCC3)nc(N3CCCCC3)n2)cc1
Result: 1.38

Request: Record: Cc1ccc(-c2cc(NC(=O)c3ccc([N+](=O)[O-])cc3)[nH]n2)cc1
Result: 1.78

Request: Record: COCCN1CCC(NC(=O)c2cccc3ccccc23)CC1
Result: 1.02

Request: Record: COc1ccc(CCN(C)CCCC(C#N)(c2ccc(OC)c(OC)c2)C(C)C)cc1OC.Cl (centres undefined)
Result: 1.32

Request: Record: O=C(O)C=C(CC(=O)O)C(=O)O
Result: 0.971

Request: Record: COc1ccc(-c2cc(=O)oc3cc(OCc4cc5c(cc4Cl)OCO5)ccc23)cc1
Result: 1.17

Request: Record: CNC(=O)C(=O)Nc1cc(Cl)ccc1C
Result: 1.25

Request: Record: CC(Oc1cccc(Cl)c1)C(=O)NCc1ccncc1 (centres undefined)
Result: 1.24

Request: Record: CCNC(=O)CCC/C=C\C[C@@H]1[C@@H](/C=C/C(O)CCc2ccccc2)[C@@H](O)C[C@@H]1O (some centres undefined)
Result: 0.961

Request: Record: Cc1cnc2c(c1N1CCC(Cc3ccccc3)CC1)c(=O)n(C)c(=O)n2C
Result: 1.01

Request: Record: CCN(CC)CCNC(=O)c1c(C)[nH]c(/C=C2\C(=O)Nc3ccc(F)cc32)c1C.O=C(O)C[C@H](O)C(=O)O
Result: 0.048

Request: Record: CN(C)c1cncc(OC2CCN(S(C)(=O)=O)C2)n1 (centres undefined)
Result: 0.951

Request: Record: CN1CCN(c2ccc(C(=O)Nc3n[nH]c4ccc(Cc5cc(F)cc(F)c5)cc34)c(NC3CCOCC3)c2)CC1
Result: 0.482

Request: Record: COc1ccc(-c2nc3cc(C4=NNC(=O)CC4C)ccc3[nH]2)cc1 (centres undefined)
Result: 1.07

Request: Record: CC1(C)Cc2ccccc2C(C[N+](=O)[O-])=N1
Result: 1.26

Request: Record: O=C(O)CCn1c2c(c3ccccc31)C[C@H](NS(=O)(=O)c1ccc(F)cc1)CC2
Result: 1.2

Request: Record: CCN(CC)CCCC(C)Nc1c2ccc(Cl)cc2nc2ccc(OC)cc12 (centres undefined)
Result: 1.19

Request: Record: CCOC(=O)C(CCc1ccccc1)NC(C)C(=O)N1C(C(=O)O)CC2CCCCC21 (centres undefined)
Result: 1.24

Request: Record: O=C(Nc1cccc(Cl)c1Cl)c1cc2nc(-c3ccco3)cc(C(F)(F)F)n2n1
Result: 1.25

Request: Record: Cl.O=S(=O)(c1cccc2cnccc12)N1CCCNCC1
Result: 0.85

Request: Record: COc1ccc(OC)c(Nc2nc(-c3c(C)nc4ccccn34)cs2)c1
Result: 1.25

Request: Record: CC1=NN(C(=O)OC(C)(C)C)C(O)(c2ccncc2)C1 (centres undefined)
Result: 1.14

Request: Record: CN(C)Cc1ccc(S(=O)(=O)n2ccc(/C=C/C(=O)NO)c2)cc1
Result: 1.49

Request: Record: CC(C)(C)C1CCC(OC(=O)CCC(=O)O)CC1 (centres undefined)
Result: 1.32

Request: Record: Cc1cccc(CSc2nn3c(=O)c(C)nnc3s2)c1
Result: 1.25

Request: Record: O=C1OC(c2ccc3ccccc3c2)=NC1=Cc1ccc(Cl)c([N+](=O)[O-])c1
Result: 1.53

Request: Record: Clc1ccc2nsnc2c1NC1=NCCN1
Result: 0.93

Request: Record: S=c1n(CN2CCOCC2)nc(-c2ccccc2Br)n1-c1ccccc1
Result: 1.21

Request: Record: CN(C)CCCN1c2ccccc2CCc2ccccc21.Cl
Result: 0.935

Request: Record: COc1ccc(C2NC(=O)C(O)=C2C(C)=O)cc1 (centres undefined)
Result: 1.29

Request: Record: COc1ccc(CNCc2ccc3ccccc3c2)cc1OC
Result: 1.04

Request: Record: CCOc1ccc(CN(CCc2ccc3c(c2)OCO3)Cc2cccc3ccccc23)cc1
Result: 0.908

Request: Record: NC(=O)c1ncn([C@@H]2O[C@H](CO)[C@@H](O)[C@H]2O)n1
Result: 1.66

Request: Record: CCN(CC)CC#CCOC(=O)C(O)(c1ccccc1)C1CCCCC1.Cl (centres undefined)
Result: 1.12

Request: Record: OCCN1CCN(CCCN2c3ccccc3Sc3ccc(Cl)cc32)CC1
Result: 1.32

Request: Record: O=C(Nc1nc(CC(=O)N2CCc3ccccc3C2)cs1)c1ccc(Cl)cc1
Result: 1.16

Request: Record: CC[C@@]1(O)C(=O)OCc2c1cc1n(c2=O)Cc2cc3c(CN(C)C)c(O)ccc3nc2-1.Cl
Result: 2.89

Request: Record: COC(=O)Nc1nc2cc(S(=O)c3ccccc3)ccc2[nH]1 (centres undefined)
Result: 0.825

Request: Record: O=C(O)c1ccccc1N(Cc1ccccc1)S(=O)(=O)c1ccccc1
Result: 1.06

Request: Record: O=C(NCCCn1ccc2cccnc21)c1cccc(Br)c1
Result: 1.06

Request: Record: CCN[C@H]1CN(CCCOC)S(=O)(=O)c2sc(S(N)(=O)=O)cc21
Result: 0.913

Request: Record: COc1ccccc1OCCOCCOc1cccc(Br)c1
Result: 1.27

Request: Record: Cc1cccc(NC(=O)Cc2c(C)nc(SCc3ccccc3F)[nH]c2=O)c1C
Result: 0.97

Request: Record: Cc1cc(O)c2c(c1)C(=O)c1cccc(O)c1C2=O
Result: 0.973

* * *

- System: RAW-Dual (murine macrophage reporter line)
- test-method-notes: IRF reporter (Lucia luciferase) activity fold change vs agonist alone; higher = enhanced IRF activity
- condition-context: modulator concentration 10 µM; agonist: LPS 0.1 ug/mL
quantity-measured: IRF reporter
Form: value (number only, do not type unit).

Request: Dear colleague, I am looking for the recorded IRF reporter of the following molecule: CCOC(=O)C1=C(C)NC(C)=C(C(=O)OCC)C1c1cc(Cl)cc(Cl)c1OC
Result: 0.852

Request: Record: COC(=O)C1=CN(C2CC2)C=C(C(=O)OC)C1c1ccccc1OC
Result: 1.22

Request: Record: COc1c(C)c2c(c(O)c1C/C=C(\C)CCC(=O)OCCN1CCOCC1)C(=O)OC2
Result: 1.28

Request: Record: O=S(=O)(Oc1cccc2ccccc12)c1ccc(F)cc1
Result: 1.06

Request: Record: Cc1ccc(-n2c(=O)c3c4c(sc3n3c(S)nnc23)CCCC4)cc1
Result: 1.41

Request: Record: COC(=O)N[C@H](C(=O)N[C@@H](Cc1ccccc1)[C@@H](O)CN(Cc1ccc(-c2ccccn2)cc1)NC(=O)[C@@H](NC(=O)OC)C(C)(C)C)C(C)(C)C.O=S(=O)(O)O
Result: 1.02

Request: Record: COc1ccc(N(CC(=O)Nc2ccccc2C(F)(F)F)S(C)(=O)=O)cc1
Result: 1.03

Request: Record: O=c1cc(CO)occ1O
Result: 1.28

Request: Record: CCC(=O)N1c2ccccc2NC2=C(C(=O)CC(c3ccccc3F)C2)C1c1ccc(C)cc1 (stereo not given)
Result: 1.35

Request: Record: NC(=O)c1cc2ccccc2oc1=NCc1ccccc1
Result: 1.16

* * *

Would you mind telling me the reported NF-kB reporter of each entry?
- Test system: RAW-Dual (murine macrophage reporter line)
- test-method-notes: NF-kB reporter (SEAP) activity fold change vs agonist alone; higher = enhanced NF-kB activity
- condition-context: modulator concentration 10 µM; agonist: CpG ODN 1826 0.5 ug/mL
Form: value (number only, do not type unit).

Request: Dear colleague, I am looking for the recorded NF-kB reporter of the following molecule: CCCn1c(C(O)(c2ccccc2)c2ccccc2)nc2ccccc21
Result: 0.514

Request: Record: Cc1cc(Nc2cc(N3CCN(C)CC3)nc(Sc3ccc(NC(=O)C4CC4)cc3)n2)n[nH]1
Result: 0.0769

Request: Record: COc1cc(C=C2SC(=S)NC2=O)ccc1OCCC(C)C
Result: 0.847

Request: Record: Cc1c(C)c2c(c(C)c1O)CCC(C)(C(=O)O)O2 (stereo not drawn)
Result: 1.14

Request: Record: CCOC(=O)N1CCN(C(=O)C2CCN(Cc3ccc(C)o3)CC2)CC1
Result: 0.941

Request: Record: COC(=O)c1ccc(CN2CCc3ccccc3C2)cc1
Result: 0.82

Request: Record: CCOc1ccc(OCCCCOc2cccc(C)c2)cc1
Result: 0.961

Request: Record: CCSc1nnc(NC(=O)C2CC3CCC2C3)s1 (stereo not drawn)
Result: 0.941

Request: Record: COc1ccc(-c2csc(NC(=O)CCc3ccccc3)c2C(=O)O)cc1
Result: 0.697

Request: Record: Cc1noc(C)c1CCC(=O)N1CCCC(c2nnc(C(F)(F)F)o2)C1 (stereo not drawn)
Result: 0.991

Request: Record: CNC(C)CCC=C(C)C.CNC(C)CCC=C(C)C (stereo not drawn)
Result: 1.07

Request: Record: Cc1ccccc1C(=O)Nc1ccc(C(=O)N2CCCC(O)c3cc(Cl)ccc32)c(C)c1 (stereo not drawn)
Result: 1.02

Request: Record: NS(=O)(=O)c1ccc(C(=O)O)cc1
Result: 0.892

Request: Record: COc1ccc2nc(NCCCn3ccnc3)sc2c1
Result: 0.921

Request: Record: Cl.O[C@@H](c1cc(C(F)(F)F)nc2c(C(F)(F)F)cccc12)[C@H]1CCCCN1
Result: 0.671

Request: Record: Cc1cc(OCC(=O)NC2CC(C)(C)NC(C)(C)C2)ccc1Br
Result: 0.843

Request: Record: Cc1cn2nc(C(=O)Nc3ccccc3N3CCN(C)CC3)cc2c(=O)[nH]1
Result: 0.685

Request: Record: CC1=CCCC(=O)C2CC(C)(C)C2CC1 (stereo not drawn)
Result: 0.95

Request: Record: Oc1ccc(CN2CCOCC2)cc1
Result: 1.05

Request: Record: CC(Cc1ccc(O)c(O)c1)C(C)Cc1ccc(O)c(O)c1 (stereo not drawn)
Result: 1.16

Request: Record: O=C(NC(=S)Nc1ccc2[nH]c(=O)[nH]c2c1)c1ccc(Cl)cc1
Result: 0.958

Request: Record: CC1(C)NC(=O)N(c2ccc([N+](=O)[O-])c(C(F)(F)F)c2)C1=O
Result: 1.26

Request: Record: CCc1nc2ccc(C(=O)NC3CCC(n4cccn4)CC3)cc2s1 (stereo not drawn)
Result: 1.02
